Tested on: Alternaria alternata
PROCEDURE_TEXT: Antifungal activity against Alternaria alternata at 1000 ppm after 96 hrs
Assay type: functional
Tag: yes if measured inhibition at 1000 ppm is not below 50%, no if it is.

Some solved entries appear below for comparison.
> print(dat)
                                   molecule  target.or.test.system  group
1  O=c1c(O)c(-c2cn(-c3ccccc3)nc2-c2ccc(Br)cc2)oc2ccccc12   Alternaria alternata     no
2  O=c1c(O)c(-c2cn(-c3ccccc3)nc2-c2ccc([N+](=O)[O-])cc2)oc2ccccc12   Alternaria alternata     no

q: Hi team, for "Cc1ccc(-c2nn(-c3ccccc3)cc2-c2oc3ccccc3c(=O)c2O)cc1" , is the recorded inhibition at 1000 ppm at or above 50%?
a: yes

* * *

Test system: Helminthosporium
PROCEDURE_TEXT: Antifungal activity against Helminthosporium species at 1000 ppm after 96 hrs
Format: functional
OBSERVABLE: inhibition at 1000 ppm (%)
Respond numerically; units are % and should not be typed.

> print(dat)
                                   molecule  units  reading
1  O=c1c(O)c(-c2cn(-c3ccccc3)nc2-c2ccc(Cl)cc2)oc2ccccc12      %     21.4
2  O=c1c(O)c(-c2cn(-c3ccccc3)nc2-c2ccc(Br)cc2)oc2ccccc12      %     39.2

Switching to the query record.
q: Find the recorded inhibition at 1000 ppm belonging to "COc1ccc(-c2nn(-c3ccccc3)cc2-c2oc3ccccc3c(=O)c2O)cc1" and report it.
a: 77.6
